assay: Non-competitive inhibition of alpha-glucosidase (unknown origin); design: species or system Homo sapiens
measurement name: IC50 (µM)
One number for each entry, in µM.

Consider the following illustrative entries.
smiles code: CC(C)=CCc1cc(C(=O)/C=C/c2ccc(O)c(O)c2)c(O)cc1O
measurement name: IC50
value unit: µM
val: 5.3
--
smiles code: CC1(C)CCc2cc(C(=O)/C=C/c3ccc(O)c(O)c3)c(O)cc2O1
measurement name: IC50
value unit: µM
val: 5.3
--
smiles code: CC1(C)CCc2cc(C(=O)/C=C/c3ccc(O)cc3)c(O)cc2O1
measurement name: IC50
value unit: µM
val: 5.3
--
smiles code: COc1cc(O)c(CC=C(C)C)c(O)c1C(=O)/C=C/c1ccc(O)cc1
measurement name: IC50
value unit: µM
val: 8.8

Next:
Requested field: IC50. Item: `CC(C)=CCc1cc(C(=O)/C=C/c2ccc(O)cc2)c(O)cc1O`
5.3

The origin of these recorded values is ChEMBL document CHEMBL3407496.
